- System: Enterococcus faecalis
- protocolDetails: Antimicrobial activity against Enterococcus faecalis VRE-309 after 16 hrs by broth microdilution method
- Assay type: functional
- conditionSummary: VRE-309, 16 h
Below is a list of entries, each paired with its recorded MIC value.
API: value field is a number in µg/mL; no unit string.

- O=C1Nc2c(I)cccc2/C1=N/NC(=S)Nc1ccccc1F: 6.25
- O=C1Nc2c(F)cccc2/C1=N/NC(=S)Nc1ccc(F)cc1: 3.12
- O=C1Nc2c(Br)cccc2/C1=N/NC(=S)Nc1cccc(F)c1: 1.56
- O=C1Nc2c(F)cccc2/C1=N/NC(=S)Nc1cccc(Cl)c1: 1.56
- Cc1cccc2c1NC(=O)/C2=N\NC(=S)Nc1ccc(F)cc1: 1.56

QUERY: Return reported MIC. Input molecule: Cc1cccc(NC(=S)N/N=C2\C(=O)Nc3c(I)cccc32)c1
RESULT: 3.12

QUERY: State its MIC: Cc1ccc(NC(=S)N/N=C2\C(=O)Nc3c(I)cccc32)cc1
RESULT: 3.12

QUERY: Report MIC, nothing else, for this molecule: Cc1cccc2c1NC(=O)/C2=N\NC(=S)Nc1ccc(Cl)cc1
RESULT: 1.56

QUERY: Please look at this molecule and report its MIC: Cc1ccc(NC(=S)N/N=C2\C(=O)Nc3c(Cl)cccc32)cc1
RESULT: 3.12

QUERY: Tell me MIC reported for O=C1Nc2c(Cl)cccc2/C1=N/NC(=S)Nc1ccccc1
RESULT: 3.12

QUERY: Tell me measured MIC for Cc1ccccc1NC(=S)N/N=C1\C(=O)Nc2c(F)cccc21 please.
RESULT: 6.25

QUERY: Report MIC for O=C1Nc2c(Br)cccc2/C1=N/NC(=S)Nc1cccc(Cl)c1
RESULT: 1.56

QUERY: Recall and state the measured MIC for Cc1ccccc1NC(=S)N/N=C1\C(=O)Nc2c(Cl)cccc21 .
RESULT: 3.12

QUERY: Look up MIC of Cc1ccccc1NC(=S)N/N=C1\C(=O)Nc2c(Br)cccc21 and report it.
RESULT: 6.25

QUERY: Using the record for Cc1cccc(NC(=S)N/N=C2\C(=O)Nc3c(Cl)cccc32)c1 , state its measured MIC.
RESULT: 3.12

QUERY: Specify reported MIC for the molecule shown: O=C1Nc2c(I)cccc2/C1=N/NC(=S)Nc1ccc(F)cc1
RESULT: 3.12

QUERY: State, in one line, measured MIC of O=C1Nc2c(Br)cccc2/C1=N/NC(=S)Nc1ccc(Cl)cc1
RESULT: 1.56

----------
- System: Staphylococcus aureus
- protocolDetails: Antimicrobial activity against methicillin-resistant Staphylococcus aureus 309-7 clinical isolate after 16 hrs by broth microdilution method
- Assay type: functional
- conditionSummary: 309-7, 16 h
MIC values, listed per item
State just the number; it will be interpreted in µg/mL.

- O=C1Nc2c(F)cccc2/C1=N/NC(=S)Nc1cccc(Cl)c1: 0.39
- Cc1ccccc1NC(=S)N/N=C1\C(=O)Nc2c(Br)cccc21: 0.78
- O=C1Nc2c(Br)cccc2/C1=N/NC(=S)Nc1cccc(Cl)c1: 0.78

Could you now consider this next compound?
QUERY: Consider the compound Cc1cccc2c1NC(=O)/C2=N\NC(=S)Nc1ccc(Cl)cc1 and give its recorded MIC.
RESULT: 1.56

----------
- Tested on: Staphylococcus aureus
- protocolDetails: Antimicrobial activity against methicillin-resistant Staphylococcus aureus 309-7 clinical isolate after 16 hrs by broth microdilution method
- Type: functional
- conditionSummary: 309-7, 16 h
Below, each entry is listed with its recorded MIC.
Write the value in µg/mL as a bare number.

* O=C1Nc2c(I)cccc2/C1=N/NC(=S)Nc1ccc(F)cc1 | 0.78
* O=C1Nc2c(F)cccc2/C1=N/NC(=S)Nc1ccc(F)cc1 | 1.56
* COc1cccc(NC(=S)N/N=C2\C(=O)Nc3c(Cl)cccc32)c1 | 0.78

QUERY: Answer with the recorded MIC of COc1cccc(NC(=S)N/N=C2\C(=O)Nc3c(F)cccc32)c1 only.
RESULT: 1.56

QUERY: Recall and state the measured MIC for Cc1cccc2c1NC(=O)/C2=N\NC(=S)Nc1ccc(F)cc1 .
RESULT: 0.78

----------
- Tested on: Staphylococcus aureus
- protocolDetails: Antimicrobial activity against methicillin-resistant Staphylococcus aureus 309-7 clinical isolate after 16 hrs by broth microdilution method
- Type: functional
- conditionSummary: 309-7, 16 h
reportedEndpoint: MIC (µg/mL)
Give the quantity in µg/mL, number only.

* O=C1Nc2c(I)cccc2/C1=N/NC(=S)Nc1ccc(Br)cc1 | 1.56

QUERY: Please give measured MIC of the following entry: O=C1Nc2c(Br)cccc2/C1=N/NC(=S)Nc1cccc(F)c1
RESULT: 0.39

QUERY: Entry O=C1Nc2c(I)cccc2/C1=N/NC(=S)Nc1ccccc1F needs its MIC filled in; supply it.
RESULT: 0.78

QUERY: For the molecule COc1ccccc1NC(=S)N/N=C1\C(=O)Nc2c(I)cccc21 , give its reported MIC.
RESULT: 6.25

QUERY: // Input: Cc1ccc(NC(=S)N/N=C2\C(=O)Nc3c(Cl)cccc32)cc1 . Output its MIC only.
RESULT: 0.78

----------
- Tested on: Enterococcus faecalis
- protocolDetails: Antimicrobial activity against vancomycin-susceptible Enterococcus faecalis after 16 hrs by broth microdilution method
- Assay type: functional
reportedEndpoint: MIC

QUERY: Fill in MIC for record Cc1cccc(NC(=S)N/N=C2\C(=O)Nc3c(Cl)cccc32)c1
RESULT: 6.25 µg/mL

QUERY: Report MIC, nothing else, for this compound: COc1cccc(NC(=S)N/N=C2\C(=O)Nc3c(F)cccc32)c1
RESULT: > 100 µg/mL

QUERY: Please give measured MIC of the following entry: O=C1Nc2c(I)cccc2/C1=N/NC(=S)Nc1ccccc1F
RESULT: 12.5 µg/mL

QUERY: Give MIC for Cc1ccc(NC(=S)N/N=C2\C(=O)Nc3c(Br)cccc32)cc1
RESULT: > 100 µg/mL

QUERY: Using the record for O=C1Nc2c(Br)cccc2/C1=N/NC(=S)Nc1ccc(F)cc1 , state its measured MIC.
RESULT: 3.12 µg/mL

QUERY: Look up and report measured MIC for this entry: O=C1Nc2c(F)cccc2/C1=N/NC(=S)Nc1cccc(Cl)c1
RESULT: 1.56 µg/mL

QUERY: For the compound O=C1Nc2c(Br)cccc2/C1=N/NC(=S)Nc1cccc(F)c1 , report MIC.
RESULT: 3.12 µg/mL

QUERY: State its MIC: O=C1Nc2c(I)cccc2/C1=N/NC(=S)Nc1cccc(F)c1
RESULT: 6.25 µg/mL

QUERY: Look up MIC of Cc1ccccc1NC(=S)N/N=C1\C(=O)Nc2c(Br)cccc21 and report it.
RESULT: 12.5 µg/mL

QUERY: Look up and state reported MIC for O=C1Nc2c(I)cccc2/C1=N/NC(=S)Nc1ccc(F)cc1
RESULT: 6.25 µg/mL

QUERY: Tell me measured MIC for COc1ccccc1NC(=S)N/N=C1\C(=O)Nc2c(F)cccc21 please.
RESULT: > 100 µg/mL

QUERY: Please give the documented MIC of O=C1Nc2c(I)cccc2/C1=N/NC(=S)Nc1cccc(Cl)c1
RESULT: 12.5 µg/mL

QUERY: Please indicate MIC recorded for Cc1ccccc1NC(=S)N/N=C1\C(=O)Nc2c(Cl)cccc21
RESULT: 6.25 µg/mL

QUERY: // Input: O=C1Nc2c(Br)cccc2/C1=N/NC(=S)Nc1cccc(Cl)c1 . Output its MIC only.
RESULT: 3.12 µg/mL

QUERY: Write down MIC measured for item COc1ccccc1NC(=S)N/N=C1\C(=O)Nc2c(I)cccc21
RESULT: > 100 µg/mL

QUERY: Supply recorded MIC for Cc1ccccc1NC(=S)N/N=C1\C(=O)Nc2c(F)cccc21 here.
RESULT: 6.25 µg/mL

QUERY: Kindly indicate its recorded MIC. Item: Cc1cccc(NC(=S)N/N=C2\C(=O)Nc3c(F)cccc32)c1
RESULT: 3.12 µg/mL

QUERY: Report measured MIC; entry is O=C1Nc2c(Cl)cccc2/C1=N/NC(=S)Nc1cccc(Cl)c1
RESULT: 3.12 µg/mL

QUERY: Tell us which MIC value is on record for COc1ccc(NC(=S)N/N=C2\C(=O)Nc3c(I)cccc32)cc1
RESULT: > 100 µg/mL

QUERY: Respond only with MIC recorded for Cc1ccc(NC(=S)N/N=C2\C(=O)Nc3c(I)cccc32)cc1
RESULT: 12.5 µg/mL

QUERY: For the compound Cc1ccccc1NC(=S)N/N=C1\C(=O)Nc2c(I)cccc21 , give its measured MIC value.
RESULT: 12.5 µg/mL

QUERY: Supply recorded MIC for O=C1Nc2c(F)cccc2/C1=N/NC(=S)Nc1ccc(F)cc1 here.
RESULT: 3.12 µg/mL

QUERY: Identify the reported MIC for the following entry. COc1ccc(NC(=S)N/N=C2\C(=O)Nc3c(F)cccc32)cc1
RESULT: > 100 µg/mL

QUERY: Give MIC for O=C1Nc2c(Br)cccc2/C1=N/NC(=S)Nc1ccc(Br)cc1
RESULT: 3.12 µg/mL

# credit: ChEMBL document CHEMBL3611970
